- protocolSummary: Metabolic stability in human liver microsome assessed as apparent intrinsic clearance in presence of NADPH incubated for 40 mins by LS-MS/MS analysis
- Assay type: ADME
- statedConditions: microsomes
# key: entry, value: CLH(app)

smilesEntry	CLH(app)
CC(C)(C)[C@H](NC(=O)C(F)(F)F)C(=O)N1C[C@H](C(F)(F)F)C[C@H]1C(=O)N[C@H](C#N)C[C@@H]1CCNC1=O	13 µL/min/mg
COC(=O)N[C@H](C(=O)N1C[C@H]2[C@@H]([C@H]1C(=O)N[C@H](C#N)C[C@@H]1CCNC1=O)C2(C)C)C(C)(C)C	8.1 µL/min/mg
COC(=O)N[C@H](C(=O)N1C[C@H](C(F)(F)F)C[C@H]1C(=O)N[C@H](C#N)C[C@@H]1CCCNC1=O)C(C)C	< 7.12 µL/min/mg
COC(=O)N[C@H](C(=O)N1C[C@H](C(F)(F)F)C[C@H]1C(=O)N[C@H](C#N)C[C@@H]1CCNC1=O)C(C)C	< 7.12 µL/min/mg

* * *

- protocolSummary: Passive permeability across apical to basolateral side in dog RRCK cells incubated for 30 mins
- Type: ADME, cell-based, Canis lupus familiaris
- statedConditions: mdckii-le, 0.5 h

smilesEntry	permeability
CC(C)(C)[C@H](NC(=O)C(F)(F)F)C(=O)N1C[C@H](OC(F)F)C[C@H]1C(=O)N[C@H](C#N)C[C@@H]1CCNC1=O	1.25 10^-6 cm/s
COC(=O)N[C@H](C(=O)N1C[C@H](C(F)(F)F)C[C@H]1C(=O)N[C@H](C#N)C[C@@H]1CCNC1=O)C(C)C	0.5 10^-6 cm/s
COC(=O)N[C@H](C(=O)N1C[C@H](OC(F)(F)F)C[C@H]1C(=O)N[C@H](C#N)C[C@@H]1CCNC1=O)C(C)(C)C	2.05 10^-6 cm/s
CC(C)(C)[C@H](NC(=O)C(F)(F)F)C(=O)N1C[C@H](OC(F)(F)F)C[C@H]1C(=O)N[C@H](C#N)C[C@@H]1CCNC1=O	1.12 10^-6 cm/s

* * *

Measured Tmax of individual entries
- protocolSummary: Tmax in Wistar Hannover rat at 10 mg/kg, po by LC-MS/MS analysis
- Type: ADME, organism-based
- statedConditions: in vivo

smilesEntry	Tmax [min]
COC(=O)N[C@H](C(=O)N1C[C@H](C(F)(F)F)C[C@H]1C(=O)N[C@H](C#N)C[C@@H]1CCCNC1=O)C(C)C	22.8
COC(=O)N[C@H](C(=O)N1C[C@H](OC(F)(F)F)C[C@H]1C(=O)N[C@H](C#N)C[C@@H]1CCNC1=O)C(C)(C)C	15

* * *

- protocolSummary: Lipophilicity, log D of compound at pH 7.4 by shake-flask method
- Assay type: physicochemical
- statedConditions: buffer
Please respond with 1.0 when measured logD is strictly beneath 1, and with 0.0 in all other cases.

smilesEntry	category
COC(=O)N[C@H](C(=O)N1C[C@H](C(F)(F)F)C[C@H]1C(=O)N[C@H](C#N)C[C@@H]1CCNC1=O)C(C)C	1.0
CC(C)(C)[C@H](NC(=O)C(F)(F)F)C(=O)N1C[C@H](OC(F)F)C[C@H]1C(=O)N[C@H](C#N)C[C@@H]1CCNC1=O	0.0
COC(=O)N[C@H](C(=O)N1C[C@H](C(F)(F)F)C[C@H]1C(=O)N[C@H](C#N)C[C@@H]1CCCNC1=O)C(C)C	1.0
CC(C)(C)[C@H](NC(=O)C(F)(F)F)C(=O)N1C[C@H](C(F)(F)F)C[C@H]1C(=O)N[C@H](C#N)C[C@@H]1CCNC1=O	0.0
COC(=O)N[C@H](C(=O)N1C[C@H](C(F)(F)F)C[C@H]1C(=O)N[C@H](C#N)C[C@@H]1CCCNC1=O)C(C)(C)C	0.0
COC(=O)N[C@H](C(=O)N1C[C@H](OC(F)F)C[C@H]1C(=O)N[C@H](C#N)C[C@@H]1CCNC1=O)C(C)(C)C	1.0
CC(C)(C)[C@H](NC(=O)C(F)(F)F)C(=O)N1C[C@H]2[C@@H]([C@H]1C(=O)N[C@H](C#N)C[C@@H]1CCNC1=O)C2(C)C	0.0
COC(=O)N[C@H](C(=O)N1C[C@H]2[C@@H]([C@H]1C(=O)N[C@H](C#N)C[C@@H]1CCNC1=O)C2(C)C)C(C)(C)C	0.0
CNC(=O)N[C@H](C(=O)N1C[C@H]2[C@@H]([C@H]1C(=O)N[C@H](C#N)C[C@@H]1CCNC1=O)C2(C)C)C(C)(C)C	1.0
CC(C)(C)[C@H](NC(=O)C(F)(F)F)C(=O)N1C[C@H](OC(F)(F)F)C[C@H]1C(=O)N[C@H](C#N)C[C@@H]1CCNC1=O	0.0
